Task for the reader: assign each of the following compounds its reported AC50.
# test target: human PAH with the R408W mutation (Homo sapiens, UniProt P00439, R408W)
# Construct: expressed in transfected cells
# Sequence (P00439 whole entry R408W): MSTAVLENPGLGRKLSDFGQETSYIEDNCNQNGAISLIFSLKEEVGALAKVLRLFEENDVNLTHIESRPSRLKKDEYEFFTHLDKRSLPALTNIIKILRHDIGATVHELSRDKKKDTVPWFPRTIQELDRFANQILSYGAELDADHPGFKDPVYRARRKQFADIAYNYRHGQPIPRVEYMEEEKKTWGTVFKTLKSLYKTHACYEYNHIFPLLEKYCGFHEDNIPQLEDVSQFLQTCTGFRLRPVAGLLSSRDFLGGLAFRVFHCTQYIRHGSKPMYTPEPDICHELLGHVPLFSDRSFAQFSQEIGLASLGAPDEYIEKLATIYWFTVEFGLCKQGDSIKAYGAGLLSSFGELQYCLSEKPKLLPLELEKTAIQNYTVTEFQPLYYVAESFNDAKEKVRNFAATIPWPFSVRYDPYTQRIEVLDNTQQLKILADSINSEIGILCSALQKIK
# test method notes: Cell Based Phenylalanine Flux Assay
# condition notes: A375 cells expressing human R408W PAH; 24 hrs with compound; 13C-Tyrosine by LC-MS; average where tested multiple times; read-out: AC50

Ask | Enter recorded AC50 with human PAH with the R408W mutation (Homo sapiens, UniProt P00439, R408W) for O=C(c1nc(C(F)(F)F)co1)N1CCc2[nH]cnc2C1c1nc2ccccc2s1 (stereo not shown) here.
Reply | 1 to 5 µM

Ask | Enter recorded AC50 with human PAH with the R408W mutation (Homo sapiens, UniProt P00439, R408W) for Cn1nc(N)cc1C(=O)N1CCc2[nH]cnc2C1c1nc2c(F)cccc2s1 (stereo not shown) here.
Reply | 1 to 5 µM

Ask | Enter recorded AC50 with human PAH with the R408W mutation (Homo sapiens, UniProt P00439, R408W) for O=C(c1n[nH]c2ccccc12)N1CCc2[nH]cnc2[C@H]1c1nc2ccccc2[nH]1 here.
Reply | > 5 µM

Ask | Enter recorded AC50 with human PAH with the R408W mutation (Homo sapiens, UniProt P00439, R408W) for O=C(N1CCC(c2ccccc2)C1)N1CCc2[nH]cnc2C1c1nc2ccccc2s1 (stereo not shown) here.
Reply | 1 to 5 µM

Ask | Enter recorded AC50 with human PAH with the R408W mutation (Homo sapiens, UniProt P00439, R408W) for CN(C)CCc1nnc(C(=O)N2CCc3[nH]cnc3C2c2nc3ccccc3s2)o1 (stereo not shown) here.
Reply | > 5 µM

Ask | Enter recorded AC50 with human PAH with the R408W mutation (Homo sapiens, UniProt P00439, R408W) for O=C(Cc1nccs1)N1CCc2[nH]cnc2C1c1nc2cccc(F)c2s1 (stereo not shown) here.
Reply | > 5 µM

Ask | Enter recorded AC50 with human PAH with the R408W mutation (Homo sapiens, UniProt P00439, R408W) for O=C(c1nc2ccccc2s1)N1CCc2[nH]cnc2C1c1nc2cc(F)ccc2s1 (stereo not shown) here.
Reply | 1 to 5 µM

Ask | Enter recorded AC50 with human PAH with the R408W mutation (Homo sapiens, UniProt P00439, R408W) for O=C(C1CN(c2ccccn2)C1)N1CCc2[nH]cnc2C1c1nc2c(F)cccc2s1 (stereo not shown) here.
Reply | 1 to 5 µM

Ask | Enter recorded AC50 with human PAH with the R408W mutation (Homo sapiens, UniProt P00439, R408W) for O=C(CCc1ccc(F)cc1)N1CCc2[nH]cnc2C1c1nc2ccccc2[nH]1 (stereo not shown) here.
Reply | > 5 µM

Ask | Enter recorded AC50 with human PAH with the R408W mutation (Homo sapiens, UniProt P00439, R408W) for O=C(CCCc1nc2ccccc2s1)N1CCc2[nH]cnc2[C@H]1c1nc2ccccc2[nH]1 here.
Reply | 1 to 5 µM
